# assay.system: His-containing four-helix maquette (histidines at positions 7 and 112)
# assay.notes: Cofactor binding titration into His maquette, UV/Vis spectra analysed by SVD
# measurement.setup: His maquette, CHES buffer pH 9.0, 25 °C, SVD fit of spectral titration; read-out: Kd (dissociation constant for each His site)
parameter: Kd (nM)

(P) Cc1ccc(-c2c3nc(cc4ccc([nH]4)c(-c4ccc(C(=O)O)cc4)c4nc(cc5ccc2[nH]5)C(C)(C)C4)C=C3)cc1
(Q) C=Cc1c(C)c2[n]3c1=CC1=[N+]4C(=Cc5c(C)c6c7[n]5[Zn-2]34[N+]3=C(C=2)[C@@H](C)[C@H](CCC(=O)O)C3=C7[C@@H](C(=O)OC)C6=O)C(CC)=C1C (some centres unmarked) [compound 13, Zn pheophorbide a]
Lower Kd: P or Q ? Your answer should be the label attached to the chosen record.
Q
